# ASSAY: UV-visible absorption spectrum
# Assay type: physicochemical
MEASURED QUANTITY: λmax, nm (Ethanol) (nm)

COc1cc(C=C(C(=O)OCCC(C)C)C(=O)OCCC(C)C)ccc1O :: 333
COc1cc(C=C(C(C)=O)C(=O)OCCC(C)C)ccc1O :: 339
CCCCC(CC)COC(=O)C(C#N)=C(c1ccccc1)c1ccccc1 (stereo not shown) [Octocrylene, reference compound] :: 303
COc1cc(C=C(C(C)=O)C(=O)OCCC(C)C)cc(C(C)C)c1O :: 341
COc1ccc(C(=O)CC(=O)c2ccc(C(C)(C)C)cc2)cc1 [Avobenzone, reference compound] :: 358
CCCCC(CC)COC(=O)C(=Cc1ccc(O)c(OC)c1)C(=O)OCC(CC)CCCC (stereo not shown) :: 332
CCCCC(CC)COC(=O)C(=Cc1cc(OC)c(O)c(C(C)C)c1)C(=O)OCC(CC)CCCC (stereo not shown) :: 334

----------
# ASSAY: Photostability in Xe-arc solar simulator (loss of UV absorption)
# MEASUREMENT CONDITIONS: 70% ethanol/30% water, about 250 J/cm^2
MEASURED QUANTITY: Photostability % Loss in 2 hrs (%)

COc1cc(C=C(C(C)=O)C(=O)OCCC(C)C)cc(C(C)C)c1O :: 3.2

P = COc1cc(C=C(C(C)=O)C(=O)OCCC(C)C)ccc1O
Q = CCCCC(CC)COC(=O)C(C#N)=C(c1ccccc1)c1ccccc1 (stereo not shown) [Octocrylene, reference compound]
R = COc1ccc(C(=O)CC(=O)c2ccc(C(C)(C)C)cc2)cc1 [Avobenzone, reference compound]
Put the items in order so that reported Photostability % Loss in 2 hrs rises from first to last. Answer by naming the labels in the order asked.
Q, P, R
